- study_target: Nitric oxide synthase, inducible (Mus musculus)
- Sequence (P29477 whole entry): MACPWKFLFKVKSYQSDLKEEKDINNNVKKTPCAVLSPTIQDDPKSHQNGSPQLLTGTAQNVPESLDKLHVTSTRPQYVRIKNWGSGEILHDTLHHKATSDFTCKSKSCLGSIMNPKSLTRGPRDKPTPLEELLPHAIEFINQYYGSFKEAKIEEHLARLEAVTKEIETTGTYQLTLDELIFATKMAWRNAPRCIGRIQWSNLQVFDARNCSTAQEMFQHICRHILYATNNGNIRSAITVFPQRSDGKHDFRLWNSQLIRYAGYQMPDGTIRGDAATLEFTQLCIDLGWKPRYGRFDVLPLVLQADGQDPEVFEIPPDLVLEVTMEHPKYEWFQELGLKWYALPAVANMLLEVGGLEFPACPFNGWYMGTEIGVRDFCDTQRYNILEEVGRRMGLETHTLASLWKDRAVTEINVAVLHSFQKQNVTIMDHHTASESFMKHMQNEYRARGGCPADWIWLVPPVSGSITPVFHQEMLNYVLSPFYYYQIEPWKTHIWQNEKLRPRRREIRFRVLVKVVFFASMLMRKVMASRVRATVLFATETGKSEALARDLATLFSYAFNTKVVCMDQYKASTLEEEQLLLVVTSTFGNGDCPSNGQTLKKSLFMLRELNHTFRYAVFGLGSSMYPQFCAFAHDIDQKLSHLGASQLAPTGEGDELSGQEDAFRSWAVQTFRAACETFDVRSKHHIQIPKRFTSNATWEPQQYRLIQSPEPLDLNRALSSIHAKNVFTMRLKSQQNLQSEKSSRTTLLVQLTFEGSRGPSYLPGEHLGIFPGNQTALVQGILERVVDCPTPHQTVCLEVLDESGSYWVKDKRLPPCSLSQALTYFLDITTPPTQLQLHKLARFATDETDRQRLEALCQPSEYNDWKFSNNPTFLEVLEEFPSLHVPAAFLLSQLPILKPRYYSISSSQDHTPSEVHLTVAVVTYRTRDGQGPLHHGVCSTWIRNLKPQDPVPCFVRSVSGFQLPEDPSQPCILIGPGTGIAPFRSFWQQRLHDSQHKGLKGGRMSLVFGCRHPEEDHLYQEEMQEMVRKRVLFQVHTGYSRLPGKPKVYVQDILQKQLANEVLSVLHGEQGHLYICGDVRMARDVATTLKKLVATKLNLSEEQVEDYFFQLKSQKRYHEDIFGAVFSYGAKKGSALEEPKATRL
- assay_remarks: Binding affinity to recombinant mouse macrophage inducible NOS overexpressed in Escherichia coli assessed as production of nitric oxide from L-arginine measured for 5 mins by oxyhemoglobin NO capture assay
parameter: Ki (µM)
# number only, unit µM dropped from output

Known Ki results, listed for orientation:
Clc1cccc(CCCNCCc2ccnc(-n3ccnc3)n2)c1 | 0.91
Cc1cncn1-c1nccc(CCNCCCc2cccc(F)c2)n1 | 24
Fc1cccc(C[C@H]2C[C@@H]2NCCc2ccnc(-n3ccnc3)n2)c1 | 3

// returns reported Ki for input `Fc1cccc(C[C@@H]2C[C@H]2NCCc2ccnc(-n3ccnc3)n2)c1`
2.14

* * *

# Ratio Ki values compiled below
- assay_remarks: Selectivity ratio of Ki for recombinant bovine endothelial NOS to Ki for recombinant rat neuronal NOS
Lab note: record the figure alone, no unit after it.

// returns reported Ratio Ki for input `Fc1cccc(CCCNCc2ccnc(-n3ccnc3)n2)c1`
33

// returns reported Ratio Ki for input `Fc1cccc(CCNCCNc2ccnc(-n3ccnc3)n2)c1`
109

// returns reported Ratio Ki for input `Clc1cccc(CCCNCCc2ccnc(-n3ccnc3)n2)c1`
253

// returns reported Ratio Ki for input Fc1cccc(C2CC2CNCCc2ccnc(-n3ccnc3)n2)c1 (centres undefined)
71
